Listing of recorded pEC50 by entry.
# Tested on: CVB3 (Nancy)
# protocol.description: microbe, parasite or virus in culture
# Parameters: species or system Huh-T7
# conditions: Enterovirus B, CVB3, read-out: CVB3 replicon *
Reminder that pEC50 means the negative base-10 logarithm of the concentration expressed in mol/L.

Example entries begin here.
O=C(/C=C/c1ccccc1)N[C@@H](CC1CCCC1)C(=O)N[C@@H](C[C@@H]1CCNC1=O)C(=O)C(=O)NCc1ccccc1 [11u] | 5.31
O=C(/C=C/c1ccccc1)N[C@@H](CC1CCC1)C(=O)N[C@@H](C[C@@H]1CCNC1=O)C(=O)C(=O)NCc1ccccc1 [11t] | 5.66

Asked: Write pEC50 of O=C(/C=C/c1ccccc1)N[C@@H](CC1CCCCC1)C(=O)N[C@@H](C[C@@H]1CCNC1=O)C(=O)C(=O)NCc1ccccc1 [11r] ; system used: CVB3 (Nancy)
Given back: 6.35

src = paper doi:10.1101/2020.02.10.936898v1
